This collection of values is drawn from patent US20150125491A1.

- TARGET OR SYSTEM: PD-L1 expressed on MDA-MB-231 cells (UniProt Q9NZQ7 19-290, limits assumed)
- Sequence (Q9NZQ7 19-290 limits assumed): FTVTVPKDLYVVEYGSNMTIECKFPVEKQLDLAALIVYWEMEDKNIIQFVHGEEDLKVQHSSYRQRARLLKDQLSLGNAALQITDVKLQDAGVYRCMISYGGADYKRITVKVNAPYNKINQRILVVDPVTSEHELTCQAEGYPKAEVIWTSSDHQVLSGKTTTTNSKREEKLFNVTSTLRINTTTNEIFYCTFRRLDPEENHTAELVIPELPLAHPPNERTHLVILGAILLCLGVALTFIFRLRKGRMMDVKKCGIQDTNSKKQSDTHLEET
- ASSAY NAME: cell-based or functional assay
Bridges are numbered along the chain shown (N, C = ends). Where no end group is shown, it is not given here. [ ]: non-standard residue; d: D form. Ahx = NCCCCCC(=O)O
# % Splenocyte proliferation per entry
Just the number please, in %, no unit attached.

Worked cases, answers included:
| BINDER | % Splenocyte proliferation (%) |
| --- | --- |
| IETSKSF (not fully specified; also: cyclic, bridge and C-terminus not given here) [Compound 6] | 55 |
| SKTSESF-NH2 (lactam 2-5) [Compound 1] | 60 |
| SETSKSFQ (not fully specified; also: cyclic, bridge and C-terminus not given here) [Compound 16] | 36 |

Attention now shifts to the item below.
[Q] Recorded % Splenocyte proliferation for cyclo(SNTSESF[Ahx]Q) (SMILES C[C@@H](O)[C@@H]1NC(=O)[C@H](CC(N)=O)NC(=O)[C@H](CO)NC(=O)[C@H](CCC(N)=O)NC(=O)CCCCCNC(=O)[C@H](Cc2ccccc2)NC(=O)[C@H](CO)NC(=O)[C@H](CCC(=O)O)NC(=O)[C@H](CO)NC1=O) [Compound 15] , please?
[A] 53
